Test system: A549
METHOD_SUMMARY: NCI tumour cell line growth inhibition, 48 h
Activity calls are given as the source filed them. No stated cut-off is given here; in the data, active = GI50 up to about 1.1 µM and inactive = higher.
MEASURE: GI50

CCCCc1c2c(nc3c1CCC/C3=C\c1ccccc1)C(=O)CCC2 ... 25.6 µM (inactive)
Cc1ccc(S(=O)(=O)OC(C=O)C(O)C(O)COC(c2ccccc2)(c2ccccc2)c2ccccc2)cc1 (configuration not stated) ... 18.2 µM (inactive)
CC(=O)N1CCC2(C=Nc3ccccc32)CC1 ... > 100 µM (inactive)
O=C(NCC(O)COc1ccccc1)c1ccccc1O (configuration not stated) ... > 100 µM (inactive)
Cc1cc(Br)ccc1/N=N/C1C(=O)ON=C1c1ccccc1 (configuration not stated) ... 25.7 µM (inactive)
Brc1cc2nn(-c3ccccc3)nc2c2nonc12 ... > 100 µM (inactive)
Cc1ccnc2nc(-c3cccc(Cl)c3)cc(O)c12 ... 0.0748 µM (active)
CC(C)C[C@H](NC(=O)[C@@H](Cc1cccc2ccccc12)NC(=O)N1CCOCC1)B(O)O ... 19.8 µM (inactive)
Oc1cc(-c2cccc(Cl)c2)nc2cc3c(cc12)OCO3 ... 2.47 µM (inactive)
COc1cc(-c2cc(=O)c3ccccc3o2)ccc1N ... 52.1 µM (inactive)

I looked up Cc1cc(S(=O)(=O)N=C2NCC(C)(C)CN2)c(S)cc1Cl and its GI50 for A549 was 19 µM (inactive)

Summary line: CC(C)C(=O)C(C)(C)CCc1ccccn1 , A549, reported GI50 = > 100 µM (inactive)

A549 assay, compound Cc1ccc(/C=C/C(=N/NC(=O)N/N=C(/C=C/c2ccc(C)cc2)C(C)C)C(C)C)cc1 , recorded GI50 = > 10 µM (inactive)

Lab note: compound Cc1cc(O)nc(NN2C(Cl)C(=O)C2c2ccc(O)cc2)n1 (configuration not stated) tested on A549; recorded GI50 was 13.6 µM (inactive)

Assay A549, sample CCOC(=O)c1c(C)[nH]c2c1c(CN(C)C)c(O)c1nc(C)c(C)nc12 , GI50 read: 22.4 µM (inactive)

Reported GI50 (A549) for entry COc1ccc2c(c1)c1c(n2CCN(C)C)-c2cccc(OC)c2CC1 is 12.3 µM (inactive)

Note to self: GI50 of CCOC(=O)/C(=C/c1ccccc1Br)P(=O)(OCC)OCC with A549 was 2.67 µM (inactive)

----------
System: M14
METHOD_SUMMARY: NCI tumour cell line growth inhibition, 48 h
The source made the active and inactive calls. Cut-off read from the data, not from the text of the source: active = GI50 up to about 1.1 µM and inactive = higher.
Returns: one label drawn from 1 = active, -1 = inactive

COc1ccc(/C=C\c2cc(OC)c(OC)c(OC)c2)cc1OC ... 1

QUERY: For CN[C@@H](C)[C@H](OP(=O)(O)OC1[C@@H](O)[C@H](O)C(O)[C@H](O)[C@@H]1O)c1ccccc1 (stereo partly specified) , which call appears in the assay record?
RESULT: -1

QUERY: What did this assay record as the result for OC(CCN1CCN(CCOC(c2ccc(F)cc2)c2ccc(F)cc2)CC1)c1ccccc1 (stereo unspecified) ?
RESULT: -1

QUERY: Recorded test call requested for CCn1c2ccccc2c2cc(Nc3cc(C)[nH]c(=O)n3)ccc21
RESULT: -1

QUERY: Please share the test call associated with CC1CCC2(NC1)OC1CC3[C@@H]4CC=C5C=CCC[C@]5(C)C4CC[C@]3(C)C1C2C (stereo partly specified) .
RESULT: -1

QUERY: For Cc1ccc(NC(=O)c2cccc([N+](=O)[O-])c2O)c(C)c1 , which call appears in the assay record?
RESULT: -1

----------
System: OVCAR-4
METHOD_SUMMARY: NCI tumour cell line growth inhibition, 48 h
Calls of active or inactive are those of the source. Cut-off read from the data, not from the text of the source: active = GI50 up to about 1.1 µM and inactive = higher.
GI50 reference

Solved cases below.
Cn1c(=O)c2c3ccccc3c(C(=O)c3ccccc3)n2c2ccccc21 ... 22.6 µM (inactive)
CN(C)c1nc(N(C)C)nc(N(C)CN(C)c2ccccc2)n1 ... > 100 µM (inactive)
CCN(CC)C(=O)N1CCN(C=S)CC1 ... > 100 µM (inactive)

According to the records, this molecule c1ccc2c(c1)N=C(c1cccc3ccccc13)CC(c1ccc3c(c1)OCO3)S2 (stereo not given) displays GI50 of > 100 µM (inactive)

Data point: N#Cc1c(SCc2ccccc2)nc(-c2ccccc2)[nH]c1=S ; GI50 = 30.9 µM (inactive)

----------
Tested on: NCI-H226
METHOD_SUMMARY: NCI tumour cell line growth inhibition, 48 h
Activity calls are given as the source filed them. Rule as the data show it: active = GI50 up to about 1.1 µM and inactive = higher.
# output must be one of TRUE = active, FALSE = inactive

CCc1ccccc1NC(=O)C1=C(C)NC(C)=C(C(=O)Nc2ccccc2CC)C1c1cccc([N+](=O)[O-])c1 ... FALSE
COc1ccc(NC(=O)CCc2cc(-c3ccc(O)c(OC)c3)nc(NC#N)n2)cc1 ... FALSE
Cc1ccc(/C=C/C(=N/NC(=O)N/N=C(/C=C/c2ccc(C)cc2)C(C)C)C(C)C)cc1 ... FALSE
CS(=O)(=O)C1(Br)S(=O)(=O)OCCOS1(=O)=O ... FALSE
CN1CCC(O)(OC(=O)C(c2ccccc2)C2(O)CCCC2)CC1 (stereo unspecified) ... FALSE

QUERY: Record request — test call for CCCCCCCCCC(=O)N[C@H]1CCc2cc(OC)c(OC)c(OC)c2-c2ccc(SC)c(=O)cc21
RESULT: TRUE

QUERY: Short answer needed: outcome of this test for O=C(OCc1ccccc1CN1CCOCC1)c1cccc(Br)c1 ?
RESULT: FALSE

QUERY: Field: outcome | Entry: CCCCCCCCCCSS(=O)(=O)c1ccc(C)cc1
RESULT: FALSE

----------
System: SNB-19
METHOD_SUMMARY: NCI tumour cell line growth inhibition, 48 h
Activity calls are given as the source filed them. No stated cut-off is given here; in the data, active = GI50 up to about 1.1 µM and inactive = higher.
GI50 reference

COc1cc2c(c(OC3OC(CO)C(O)C(O)C3O)c1)C(=O)CC(c1ccc(O)cc1)O2 (centres undefined) ... > 100 µM (inactive)

Hey, SNB-19 data for CC(=O)c1ccc(N2CCN(C3=CC(=O)c4c(O)ccc(O)c4C3=O)CC2)cc1 : GI50 came out at 62.4 µM (inactive)

The observed GI50 for N#Cc1ccc(Nc2cnc3ccc(N)cc3n2)cc1 when tested with SNB-19 stands at > 100 µM (inactive)

With SNB-19 as the test system, CCC1C(c2cc(OC)c(OC)c(OC)c2)c2cc3c(cc2OC1N1CCOCC1)OCO3 (centres undefined) showed GI50 of 4.14 µM (inactive)

----------
System: HCT-116
METHOD_SUMMARY: NCI tumour cell line growth inhibition, 48 h
Active and inactive are the calls of the source. Rule as the data show it: active = GI50 up to about 1.1 µM and inactive = higher.
Result category, one only: 1 (active), -1 (inactive)

// below: answered compounds
C=C1C(=O)OC2CC(C)C(/C=C/C(C)=O)=CCC12 (centres undefined) ... -1
O=C(Nc1cccc(Cl)c1)c1cc2cc(/N=N/c3ccc(Br)cc3)ccc2oc1=O ... -1
CC1(C)OC1CC/C(=C/CBr)CBr (centres undefined) ... -1
COc1cc([N+](=O)[O-])ccc1NC(=O)c1cccc([N+](=O)[O-])c1O ... -1
Cc1ccc(NC(=O)/C(Cl)=C(/Cl)C(=O)O)cc1 ... -1

QUERY: What is the recorded call for this compound in the test? COc1cc2c(c(OC3OC(CO)C(O)C(O)C3O)c1)C(=O)CC(c1ccc(O)cc1)O2 (centres undefined)
RESULT: -1

QUERY: Called result for CCOC(=O)c1c(C)[nH]c2c1c(CN(C)C)c(O)c1nc(C)c(C)nc12
RESULT: -1

QUERY: Hey, what did the test say about C=CC(C1=CC(=O)C(OC)=CC1=O)c1ccccc1 (centres undefined) [4-METHOXYDALBERGIONE] ?
RESULT: -1

QUERY: Each compound tested received a call. Report the one for CC[C@]12C=CCN3CCC4(c5cc([C@@]6(C(=O)OC)CC7CN(CCc8c6[nH]c6ccccc86)C[C@@H]6CCCC[C@H]76)c(OC)cc5N(C)C4[C@](O)(C(=O)OC)C1OC(C)=O)[C@@H]32 (some centres undefined) .
RESULT: 1

QUERY: Dear colleague, could you share the recorded outcome for Cc1cccc(C(C)C)c1NC(=O)CCl when you have a moment?
RESULT: -1

QUERY: Entry CC1(C)O[C@@H](CP(c2cccc3ccccc23)c2cccc3ccccc23)[C@H](CP(c2cccc3ccccc23)c2cccc3ccccc23)O1 : call = ?
RESULT: -1

QUERY: What was the test verdict on Cn1c(=O)c2c3ccccc3c(C(=O)c3ccccc3)n2c2ccccc21 ?
RESULT: -1

QUERY: Record request — test call for Cc1ccc(S(=O)(=O)[C@@H](Cl)[C@H]2N=C(Cl)NN=C2c2ccccc2)cc1
RESULT: -1

QUERY: What call does the record list for COC(=O)C(/C(=N/NC(N)=O)C(=O)Nc1c(C)cccc1C(C)(C)C)c1nc2ccc(Cl)cc2nc1O (centres undefined) ?
RESULT: -1

QUERY: Hi team, can someone confirm the assay call for NC(=O)Oc1ccccc1 [CARBAMIC ACID PHENYL ESTER] ?
RESULT: -1

QUERY: Which outcome was assigned to CCCCCNC(=O)c1cc2cc(CCl)ccc2oc1=O in this test?
RESULT: -1

QUERY: Outcome? N#Cc1cc(Sc2ccc(N)c(C#N)c2)ccc1N
RESULT: -1
